Where do the numbers come from? From ChEMBL document CHEMBL3627665.

target: Indoleamine 2,3-dioxygenase 1 (Mus musculus, UniProt P28776)
Sequence (P28776 whole entry): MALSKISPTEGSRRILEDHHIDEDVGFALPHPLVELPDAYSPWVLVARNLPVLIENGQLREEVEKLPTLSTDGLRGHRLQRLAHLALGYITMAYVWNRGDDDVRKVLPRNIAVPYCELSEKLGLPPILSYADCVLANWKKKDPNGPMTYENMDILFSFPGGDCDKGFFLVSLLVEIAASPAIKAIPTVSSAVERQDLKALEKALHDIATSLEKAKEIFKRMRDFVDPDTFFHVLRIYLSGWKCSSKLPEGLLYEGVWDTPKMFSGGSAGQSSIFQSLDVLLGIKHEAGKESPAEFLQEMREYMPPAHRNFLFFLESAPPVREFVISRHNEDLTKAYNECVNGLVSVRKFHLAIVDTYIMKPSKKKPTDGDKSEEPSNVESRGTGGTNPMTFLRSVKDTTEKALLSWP
measure: IC50

Challenge: Value lookup for IC50; key = Fc1ccc2c(/C=C/c3cccnc3)c[nH]c2c1
Response given: > 80 µM

###

biological target: Kynurenine/alpha-aminoadipate aminotransferase, mitochondrial (Rattus norvegicus, UniProt Q64602); assay: Inhibition of rat KAT-2
Sequence (Q64602 whole entry): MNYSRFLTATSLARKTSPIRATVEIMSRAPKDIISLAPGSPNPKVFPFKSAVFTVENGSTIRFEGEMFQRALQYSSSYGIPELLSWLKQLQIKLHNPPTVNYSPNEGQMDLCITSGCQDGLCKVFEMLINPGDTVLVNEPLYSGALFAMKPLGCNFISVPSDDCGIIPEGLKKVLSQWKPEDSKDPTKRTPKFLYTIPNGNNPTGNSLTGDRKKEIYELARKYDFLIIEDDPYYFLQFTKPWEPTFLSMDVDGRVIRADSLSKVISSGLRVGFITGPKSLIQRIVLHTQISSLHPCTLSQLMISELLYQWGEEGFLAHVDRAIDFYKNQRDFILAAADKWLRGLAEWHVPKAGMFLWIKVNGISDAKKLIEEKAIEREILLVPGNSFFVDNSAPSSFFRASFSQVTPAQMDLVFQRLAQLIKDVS
measure: IC50 (µM)
Give the number; µM is assumed, so skip it.

{"columns": ["item-smiles", "measure", "unit-of-measure", "measured"],
 "data": [
  ["CCS(=O)(=O)c1ccc(C(=O)C[C@H](N)C(=O)O)cc1", "IC50", "µM", 71]
]}

Challenge: Value lookup for IC50; key = O=C1NC(=O)/C(=C/c2cccc(-c3ccc4c5c3CCC(=O)N5CC4)c2)S1
Response given: 13.4
